# System Under Test: P. falciparum apicoplast DNA polymerase (Pf-apPOL) (Plasmodium falciparum, UniProt Q8ILY1)
# Sequence (Q8ILY1 entry or part of it): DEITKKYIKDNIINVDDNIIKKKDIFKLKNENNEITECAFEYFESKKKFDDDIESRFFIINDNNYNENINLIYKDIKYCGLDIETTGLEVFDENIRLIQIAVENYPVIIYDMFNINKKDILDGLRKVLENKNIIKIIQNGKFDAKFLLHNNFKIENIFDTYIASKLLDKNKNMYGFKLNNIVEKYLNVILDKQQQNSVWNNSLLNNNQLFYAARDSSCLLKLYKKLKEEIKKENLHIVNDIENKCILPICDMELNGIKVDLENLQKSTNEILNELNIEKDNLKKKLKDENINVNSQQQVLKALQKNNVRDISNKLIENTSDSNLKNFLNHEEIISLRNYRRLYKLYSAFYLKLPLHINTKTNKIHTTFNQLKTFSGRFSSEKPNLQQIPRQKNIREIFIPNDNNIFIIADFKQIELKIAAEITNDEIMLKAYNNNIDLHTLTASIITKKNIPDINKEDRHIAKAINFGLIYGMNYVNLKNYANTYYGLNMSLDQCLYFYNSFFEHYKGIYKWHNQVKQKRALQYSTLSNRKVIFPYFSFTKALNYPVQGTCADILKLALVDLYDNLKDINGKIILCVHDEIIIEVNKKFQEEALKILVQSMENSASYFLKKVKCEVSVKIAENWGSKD
# Assay Protocol: Fluorescence-based high-throughput DNA polymerase assay (molecular beacon), primary screen and dose-response
# Assay type: biochemical
# Condition Set: DRC-1; 10'; concentration 10
Rule: TRUE for % inhibition Apo pol 10' not less than 50%, FALSE for anything less.

{"Compound": "O=C(Nc1cccc(C(=O)Nc2ccc(S(=O)(=O)[O-])c3cc(S(=O)(=O)[O-])cc(S(=O)(=O)[O-])c23)c1)Nc1cccc(C(=O)Nc2ccc(S(=O)(=O)[O-])c3cc(S(=O)(=O)[O-])cc(S(=O)(=O)[O-])c23)c1.[Na+].[Na+].[Na+].[Na+].[Na+].[Na+]", "Class Label": "TRUE"}
{"Compound": "O=C(Cc1cc(=O)[nH]c(SCc2ccccc2)n1)Nc1ccc2c(c1)OCO2", "Class Label": "FALSE"}
{"Compound": "O=C1N/C(=N/c2ccccc2Cl)S/C1=C/c1ccc([N+](=O)[O-])o1", "Class Label": "FALSE"}
{"Compound": "CSC1=C(C#N)C(=C(C#N)C#N)NC(c2ccccc2)=N1 [Molecule 2, CSc1nc([nH]c(=C(C#N)C#N)c1C#N)c1ccccc1]", "Class Label": "TRUE"}
{"Compound": "O=c1[nH]c2ccc([N+](=O)[O-])cc2c(-c2ccccc2)c1Sc1nc2ccccc2o1", "Class Label": "FALSE"}

###

# System Under Test: P. falciparum apicoplast DNA polymerase (Pf-apPOL) (Plasmodium falciparum, UniProt Q8ILY1)
# Assay Protocol: Fluorescence-based high-throughput DNA polymerase assay (molecular beacon), primary screen and dose-response
# Format: biochemical
# Condition Set: primary screen value, DNA Pol; 90 min, 10 µM

{"Molecule": "O=C(CSc1nnc(-c2ccco2)[nH]1)c1ccc(Cl)cc1", "DNA Pol": 40}
{"Molecule": "Cc1ccc(C(=O)/C=C/C=C/C=C/N(C)C)o1", "DNA Pol": 48}
{"Molecule": "CCOC(=O)C1=C2c3cc(OC)c(OC)cc3CC(C)(C)N2C(=O)C1=O", "DNA Pol": 50}
{"Molecule": "COc1cccc(C(=O)N2CCc3c(nc4cc(-c5ccccc5)[nH]n4c3=O)C2)c1OC", "DNA Pol": 45}
{"Molecule": "Cc1ccc(NC(=O)Cn2ccc3c(=O)[nH]ccc32)cc1F [Molecule 48, O=C(Cn1ccc2c1cc[nH]c2=O)Nc1ccc(c(c1)F)C]", "DNA Pol": 27}
{"Molecule": "Cc1ccc(NC(=O)C2CCN(C(=O)c3cc4ccsc4[nH]3)CC2)c(Br)c1", "DNA Pol": 67}
{"Molecule": "CCCCC(=O)N1CCc2c(nc3cc(-c4ccccc4Cl)[nH]n3c2=O)C1", "DNA Pol": 43}
{"Molecule": "O=C1C(=Cc2ccccc2O)Oc2ccc(O)cc21", "DNA Pol": 17}

###

# System Under Test: P. falciparum apicoplast DNA polymerase (Pf-apPOL) (Plasmodium falciparum)
# Assay Protocol: Fluorescence-based high-throughput DNA polymerase assay (molecular beacon), primary screen and dose-response
# Type: biochemical
# Condition Set: DRC-1; concentration 80 (unit not given); 10'

{"Molecule": "CCCN1COc2ccc3c(=O)c(-c4ccccc4)coc3c2C1 [KU0199556]", "% inhibition Apo pol 10' / %": 71.548}
{"Molecule": "O=C(Cn1ccc2c(=O)[nH]ccc21)Nc1ccccc1Cl [Molecule 19, O=C(Cn1ccc2c1cc[nH]c2=O)Nc1ccccc1Cl]", "% inhibition Apo pol 10' / %": 78.354}
{"Molecule": "Oc1cccnc1/N=C/c1cc(I)cc(I)c1O [KU0073720]", "% inhibition Apo pol 10' / %": 86.1265}
{"Molecule": "COc1cc(/C=C2\\C(=O)N(c3ccc(C(=O)O)cc3)N=C2C(F)(F)F)ccc1OCC(C)C [KU0069072]", "% inhibition Apo pol 10' / %": 95.6412}
